# Test system: NCI-H1734
# protocol_text: relative viability (nuclei count vs DMSO), 5 days (fraction); higher = more cells survive
# stated_conditions: first compound 2.53 µM
// relative viability lookup, one value per entry

compound	relative viability
C=C1C(=O)O[C@@H](CCCCCCCC)[C@@H]1C(=O)O [C-75] + CS(=O)(=O)CCNCc1ccc(-c2ccc3ncnc(Nc4ccc(OCc5cccc(F)c5)c(Cl)c4)c3c2)o1 [Lapatinib] (partner 2 µM)	0.362
Oc1nc(-c2ccc(C(F)(F)F)cc2)nc2c1CSCC2 [XAV939] + Nc1ncn([C@H]2C[C@H](O)[C@@H](CO)O2)c(=O)n1 [Decitabine] (partner 2 µM)	0.475
C=C1C(=O)O[C@@H](CCCCCCCC)[C@@H]1C(=O)O [C-75] + CC(=O)Nc1cccc(-n2c(=O)n(C3CC3)c(=O)c3c(Nc4ccc(I)cc4F)n(C)c(=O)c(C)c32)c1 [Trametinib] (partner 0.02 µM)	0.524

---

# System: LK-2
# protocol_text: relative viability (nuclei count vs DMSO), 5 days (fraction); higher = more cells survive
# stated_conditions: first compound 1 µM
reported_metric: relative viability

molecule	value
NC(=O)Nc1cc(-c2cccc(F)c2)sc1C(=O)N[C@H]1CCCNC1 [AZD7762] + Cc1cc(Nc2cc(N3CCN(C)CC3)nc(Sc3ccc(NC(=O)C4CC4)cc3)n2)n[nH]1 [Tozasertib] (partner 0.1 µM)	0.165
NC(=O)Nc1cc(-c2cccc(F)c2)sc1C(=O)N[C@H]1CCCNC1 [AZD7762] + C[C@]1(O)C[C@@H](c2nc(-c3ccc4ccc(-c5ccccc5)nc4c3)c3c(N)nccn32)C1 [Linsitinib] (partner 1 µM)	0.308
NC(=O)Nc1cc(-c2cccc(F)c2)sc1C(=O)N[C@H]1CCCNC1 [AZD7762] + CC(=O)c1c(C)c2cnc(Nc3ccc(N4CCNCC4)cn3)nc2n(C2CCCC2)c1=O [Palbociclib] (partner 0.5 µM)	0.572

---

# System: NCI-H460
# protocol_text: relative viability (nuclei count vs DMSO), 5 days (fraction); higher = more cells survive
# stated_conditions: first compound 0.05 µM
// relative viability lookup, one value per entry
reported_metric: relative viability

molecule	tested_on	value
CC1(C)CCC(c2ccc(Cl)cc2)=C(CN2CCN(c3ccc(C(=O)NS(=O)(=O)c4ccc(N[C@H](CCN5CCOCC5)CSc5ccccc5)c(S(=O)(=O)C(F)(F)F)c4)cc3)CC2)C1 [Navitoclax] + Cc1nc(NC(=O)N2CCC[C@H]2C(N)=O)sc1-c1ccnc(C(C)(C)C(F)(F)F)c1 [Alpelisib] (partner 2 µM)	NCI-H460	0.639
CC1(C)CCC(c2ccc(Cl)cc2)=C(CN2CCN(c3ccc(C(=O)NS(=O)(=O)c4ccc(N[C@H](CCN5CCOCC5)CSc5ccccc5)c(S(=O)(=O)C(F)(F)F)c4)cc3)CC2)C1 [Navitoclax] + C[C@@H](Oc1cc(-c2cnn(C3CCNCC3)c2)cnc1N)c1c(Cl)ccc(F)c1Cl [Crizotinib] (partner 1 µM)	NCI-H460	0.979
CC1(C)CCC(c2ccc(Cl)cc2)=C(CN2CCN(c3ccc(C(=O)NS(=O)(=O)c4ccc(N[C@H](CCN5CCOCC5)CSc5ccccc5)c(S(=O)(=O)C(F)(F)F)c4)cc3)CC2)C1 [Navitoclax] + COc1cc2c(Oc3ccc(NC(=O)C4(C(=O)Nc5ccc(F)cc5)CC4)cc3F)ccnc2cc1OCCCN1CCOCC1 [Foretinib] (partner 0.25 µM)	NCI-H460	0.713

---

# Tested on: NCI-H2087
# protocol_text: relative viability (nuclei count vs DMSO), 5 days (fraction); higher = more cells survive
# stated_conditions: first compound 0.3162 µM
Threshold 1: relative viability strictly smaller gives True, otherwise False.

molecule	label_class
NC(=O)Nc1cc(-c2cccc(F)c2)sc1C(=O)N[C@H]1CCCNC1 [AZD7762] + COc1cc2c(Oc3ccc(NC(=O)C4(C(=O)Nc5ccc(F)cc5)CC4)cc3F)ccnc2cc1OCCCN1CCOCC1 [Foretinib] (partner 0.25 µM)	False
NC(=O)Nc1cc(-c2cccc(F)c2)sc1C(=O)N[C@H]1CCCNC1 [AZD7762] + CS(=O)(=O)CCNCc1ccc(-c2ccc3ncnc(Nc4ccc(OCc5cccc(F)c5)c(Cl)c4)c3c2)o1 [Lapatinib] (partner 2 µM)	False
NC(=O)Nc1cc(-c2cccc(F)c2)sc1C(=O)N[C@H]1CCCNC1 [AZD7762] + C[C@@H](Oc1cc(-c2cnn(C3CCNCC3)c2)cnc1N)c1c(Cl)ccc(F)c1Cl [Crizotinib] (partner 1 µM)	True
NC(=O)Nc1cc(-c2cccc(F)c2)sc1C(=O)N[C@H]1CCCNC1 [AZD7762] + Cc1nc(NC(=O)N2CCC[C@H]2C(N)=O)sc1-c1ccnc(C(C)(C)C(F)(F)F)c1 [Alpelisib] (partner 2 µM)	False
NC(=O)Nc1cc(-c2cccc(F)c2)sc1C(=O)N[C@H]1CCCNC1 [AZD7762] + CC1(C)CCC(c2ccc(Cl)cc2)=C(CN2CCN(c3ccc(C(=O)NS(=O)(=O)c4ccc(N[C@H](CCN5CCOCC5)CSc5ccccc5)c(S(=O)(=O)C(F)(F)F)c4)cc3)CC2)C1 [Navitoclax] (partner 0.5 µM)	False

---

// relative viability lookup, one value per entry
# Test system: NCI-H2085
# protocol_text: relative viability (nuclei count vs DMSO), 5 days (fraction); higher = more cells survive
# stated_conditions: first compound 1.265 µM

compound	relative viability
O=C(O)c1ccc(-c2c[nH]c3ncc(-c4ccccc4)cc23)cc1C1CCCC1 + NC(=O)Nc1cc(-c2cccc(F)c2)sc1C(=O)N[C@H]1CCCNC1 [AZD7762] (partner 0.2 µM)	0.871
O=C(O)c1ccc(-c2c[nH]c3ncc(-c4ccccc4)cc23)cc1C1CCCC1 + Cc1nc(Nc2ncc(C(=O)Nc3c(C)cccc3Cl)s2)cc(N2CCN(CCO)CC2)n1 [Dasatinib] (partner 0.075 µM)	0.247
O=C(O)c1ccc(-c2c[nH]c3ncc(-c4ccccc4)cc23)cc1C1CCCC1 + CCNC(=O)c1noc(-c2cc(C(C)C)c(O)cc2O)c1-c1ccc(CN2CCOCC2)cc1 [Luminespib] (partner 0.01 µM)	0.31
O=C(O)c1ccc(-c2c[nH]c3ncc(-c4ccccc4)cc23)cc1C1CCCC1 + Cc1cc(Nc2cc(N3CCN(C)CC3)nc(Sc3ccc(NC(=O)C4CC4)cc3)n2)n[nH]1 [Tozasertib] (partner 0.1 µM)	0.52

---

// relative viability lookup, one value per entry
# Tested on: BEN
# protocol_text: relative viability (nuclei count vs DMSO), 5 days (fraction); higher = more cells survive
# stated_conditions: first compound 0.01 µM

compound	relative viability
NC(=O)Nc1cc(-c2cccc(F)c2)sc1C(=O)N[C@H]1CCCNC1 [AZD7762] + CS(=O)(=O)CCNCc1ccc(-c2ccc3ncnc(Nc4ccc(OCc5cccc(F)c5)c(Cl)c4)c3c2)o1 [Lapatinib] (partner 2 µM)	0.788
NC(=O)Nc1cc(-c2cccc(F)c2)sc1C(=O)N[C@H]1CCCNC1 [AZD7762] + O=C(CCCCCCC(=O)Nc1ccccc1)NO [Vorinostat] (partner 1 µM)	0.639
NC(=O)Nc1cc(-c2cccc(F)c2)sc1C(=O)N[C@H]1CCCNC1 [AZD7762] + O=C(c1cc(Cc2n[nH]c(=O)c3ccccc23)ccc1F)N1CCN(C(=O)C2CC2)CC1 [Olaparib] (partner 8 µM)	1.05

---

# Test system: NCI-H727
# protocol_text: relative viability (nuclei count vs DMSO), 5 days (fraction); higher = more cells survive
# stated_conditions: first compound 0.04 µM
Threshold 0.5: relative viability strictly smaller gives true (1), otherwise false (0).

compound	tested_on	label_class
O=C(O)c1ccc(-c2c[nH]c3ncc(-c4ccccc4)cc23)cc1C1CCCC1 + Cc1nc(NC(=O)N2CCC[C@H]2C(N)=O)sc1-c1ccnc(C(C)(C)C(F)(F)F)c1 [Alpelisib] (partner 2 µM)	NCI-H727	false (0)
O=C(O)c1ccc(-c2c[nH]c3ncc(-c4ccccc4)cc23)cc1C1CCCC1 + Cc1cc(Nc2cc(N3CCN(C)CC3)nc(Sc3ccc(NC(=O)C4CC4)cc3)n2)n[nH]1 [Tozasertib] (partner 0.1 µM)	NCI-H727	false (0)
O=C(O)c1ccc(-c2c[nH]c3ncc(-c4ccccc4)cc23)cc1C1CCCC1 + C[C@]1(O)C[C@@H](c2nc(-c3ccc4ccc(-c5ccccc5)nc4c3)c3c(N)nccn32)C1 [Linsitinib] (partner 1 µM)	NCI-H727	true (1)
O=C(O)c1ccc(-c2c[nH]c3ncc(-c4ccccc4)cc23)cc1C1CCCC1 + O=C(c1cc(Cc2n[nH]c(=O)c3ccccc23)ccc1F)N1CCN(C(=O)C2CC2)CC1 [Olaparib] (partner 8 µM)	NCI-H727	false (0)
O=C(O)c1ccc(-c2c[nH]c3ncc(-c4ccccc4)cc23)cc1C1CCCC1 + O=C(CCCCCCC(=O)Nc1ccccc1)NO [Vorinostat] (partner 1 µM)	NCI-H727	false (0)
O=C(O)c1ccc(-c2c[nH]c3ncc(-c4ccccc4)cc23)cc1C1CCCC1 + N=C(N)NC(=N)NCCc1ccccc1 [Phenformin] (partner 250 µM)	NCI-H727	true (1)
O=C(O)c1ccc(-c2c[nH]c3ncc(-c4ccccc4)cc23)cc1C1CCCC1 + CC(=O)Nc1cccc(-n2c(=O)n(C3CC3)c(=O)c3c(Nc4ccc(I)cc4F)n(C)c(=O)c(C)c32)c1 [Trametinib] (partner 0.02 µM)	NCI-H727	true (1)
